tested on: Ba/F3-EGFR-insSVD cells; assay: Proliferation assay in BA/F3 (ins SVD) cells (Cell Titer-Glo); type: cell-based; conditions: Mus musculus, BaF3, 48 h, Table 10, plated without EGF
Recorded pIC50 values for a group of compounds are listed next.
In textbook form, pIC50 equals minus log to base ten of the concentration in mol/L.

Known pIC50 results, listed for orientation:
COC(C)(C)COc1cnccc1-c1[nH]c2c(c1Nc1cccc(F)c1)C(=O)NCC2: 7.20
COCCOc1cnccc1-c1[nH]c2c(c1Nc1ccc(F)c(F)c1OC)C(=O)NCC2: 6.19
CN(C)CCOc1cnccc1-c1[nH]c2c(c1Nc1cccc(F)c1OC(F)F)C(=O)NCC2: 6.92
COC(C)(C)COc1cnccc1-c1[nH]c2c(c1Nc1cccc(F)c1C)C(=O)NCC2: 8.06
Cc1c(F)cccc1Nc1c(-c2ccncc2OCC(C)(C)N(C)C)[nH]c2c1C(=O)NCC2: 7.05

Next compound, pIC50 to be filled in.
Recorded pIC50 (compound `COc1c(Cl)cccc1Nc1c(-c2ccncc2OCCOC(C)(C)C)[nH]c2c1C(=O)NCC2` ): 7.46

###

target: EGFR ins SVD (insertion of SVD between D770 and N771) (Homo sapiens, UniProt P00533, INS767SVD); assay: Exon 20-Mutant-EGFR(D770_N771insSVD) kinase assay (TR-FRET); type: biochemical; conditions: Table 9; read-out: mutEGFR (D770_N771insSVD) kinase assay IC50
Sequence (P00533 with tags, fused parts or gaps INS767SVD limits assumed): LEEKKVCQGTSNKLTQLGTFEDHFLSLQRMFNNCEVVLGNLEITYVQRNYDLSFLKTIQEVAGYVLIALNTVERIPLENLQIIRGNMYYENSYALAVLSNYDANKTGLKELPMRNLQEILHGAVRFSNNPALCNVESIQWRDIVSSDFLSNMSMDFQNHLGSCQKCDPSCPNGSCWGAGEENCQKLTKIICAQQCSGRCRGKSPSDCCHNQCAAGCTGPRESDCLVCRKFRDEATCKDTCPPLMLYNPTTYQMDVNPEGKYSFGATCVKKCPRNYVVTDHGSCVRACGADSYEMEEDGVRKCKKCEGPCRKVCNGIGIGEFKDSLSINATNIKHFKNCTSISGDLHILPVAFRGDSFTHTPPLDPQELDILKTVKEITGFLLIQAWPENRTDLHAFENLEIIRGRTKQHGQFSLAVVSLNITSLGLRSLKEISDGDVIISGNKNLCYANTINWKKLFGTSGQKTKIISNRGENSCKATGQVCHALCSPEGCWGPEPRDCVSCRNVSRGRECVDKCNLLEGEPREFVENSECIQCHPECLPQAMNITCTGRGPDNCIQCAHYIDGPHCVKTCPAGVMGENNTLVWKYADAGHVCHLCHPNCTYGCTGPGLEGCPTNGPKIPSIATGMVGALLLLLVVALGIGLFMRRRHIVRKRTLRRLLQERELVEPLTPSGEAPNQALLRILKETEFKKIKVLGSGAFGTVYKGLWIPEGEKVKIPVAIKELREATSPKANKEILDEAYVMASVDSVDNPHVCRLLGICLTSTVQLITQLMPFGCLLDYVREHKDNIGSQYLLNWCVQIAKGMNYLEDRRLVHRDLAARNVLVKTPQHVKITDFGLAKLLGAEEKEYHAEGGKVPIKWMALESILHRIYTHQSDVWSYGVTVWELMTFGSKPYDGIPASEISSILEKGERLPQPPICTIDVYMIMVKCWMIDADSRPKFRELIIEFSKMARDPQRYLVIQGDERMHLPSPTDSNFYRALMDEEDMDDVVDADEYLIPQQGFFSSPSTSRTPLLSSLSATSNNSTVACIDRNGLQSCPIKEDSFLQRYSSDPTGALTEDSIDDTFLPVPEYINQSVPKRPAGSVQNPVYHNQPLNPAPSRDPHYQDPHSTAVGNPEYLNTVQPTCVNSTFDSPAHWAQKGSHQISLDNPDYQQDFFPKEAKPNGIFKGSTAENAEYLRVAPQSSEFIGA
measurement-type: pIC50
Formally, pIC50 is defined as -log10 of the concentration c, with c in mol/L.

Example cases with answers are listed next.
O=C1NCCc2[nH]c(-c3ccncc3OCC3CCOCC3)c(Nc3cccc(Cl)c3OC(F)F)c21: 9.40
COC(C)(C)COc1cnccc1-c1[nH]c2c(c1Nc1ccccc1Cl)C(=O)NCC2: 9.98
COc1c(Cl)cccc1Nc1c(-c2ccncc2OC[C@@H]2CCCN2CC(F)(F)F)[nH]c2c1C(=O)NCC2: 9.73
COC(C)(C)COc1cnccc1-c1[nH]c2c(c1Nc1cc(F)cc(F)c1OC(F)F)C(=O)NCC2: 10.00

`COC(C)(C)COc1cnccc1-c1[nH]c2c(c1Nc1ccccc1C(F)(F)F)C(=O)NCC2` has a reported pIC50 of 9.72

# pIC50 of `COc1c(F)cccc1Nc1c(-c2ccncc2OCC(C)(C)N2CCOCC2)[nH]c2c1C(=O)NCC2` = 9.04

###

Some molecules, each annotated with its measured IC50.
target: EGFR ins SVD (insertion of SVD between D770 and N771) (Homo sapiens, UniProt P00533, INS767SVD); experiment: Exon 20-Mutant-EGFR(D770_N771insSVD) kinase assay (TR-FRET); format: biochemical; conditions: Table 9; read-out: mutEGFR (D770_N771insSVD) kinase assay IC50
Write the value in pM as a bare number.

Field: example entries. Status: answers known.
Cc1c(F)cccc1Nc1c(-c2ccncc2OCCN(C)C)[nH]c2c1C(=O)NCC2: 562
COc1c(F)cccc1Nc1c(-c2ccncc2OCCOC(C)(C)C)[nH]c2c1C(=O)NCC2: 135
O=C1NCCc2[nH]c(-c3ccncc3OCC3CCOC3)c(Nc3cccc(Cl)c3OC(F)F)c21 (centres unmarked): 242
CN(C)CCOc1cnccc1-c1[nH]c2c(c1Nc1cccc(F)c1)C(=O)NCC2: 1560
O=C1NCCc2[nH]c(-c3ccncc3OC[C@@H]3CCCO3)c(Nc3cccc(Cl)c3Cl)c21: 91.8

Query `COC(C)(C)COc1cnccc1-c1[nH]c2c(c1Nc1cccc(F)c1O)C(=O)NCC2` yields IC50 of 541

// IC50 lookup, molecule = `CN1CCC[C@H]1COc1cnccc1-c1[nH]c2c(c1Nc1cccc(Cl)c1Cl)C(=O)NCC2` , result: 258
